Test system: 422866-222-R5-J1-PDC complex spheroids viability;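 further: spheroids exposed to compounds for 7 days; 100% = DMSO vehicle control viability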
Assay: Anticancer human tumor 422866-222-R5-J1-PDC patient-derived pancreatic adenocarcinoma cell line growth inhibition [RAS]
Conditions: second compound 0.316 µM; first compound 0.0316 µM; hits give low values
measured metric: viability, T/C

[[record]]
molecule = "CC(C)NCC(C(=O)N1CCN(c2ncnc3c2C(C)CC3O)CC1)c1ccc(Cl)cc1 (stereo not given) + C#Cc1c(F)ccc2cc(O)cc(-c3ncc4c(N5CC6CCC(C5)N6)nc(OCC56CCCN5CC(F)C6)nc4c3F)c12"
measured_metric = "viability, T/C"
measured = "60.3%"

[[record]]
molecule = "C=CC(=O)N1CCN(c2nc(OCC3CCCN3C)nc3c(F)c(-c4nc(N)cc(C)c4C(F)(F)F)c(Cl)cc23)C(C)C1 (stereo not given) + C#Cc1c(F)ccc2cc(O)cc(-c3ncc4c(N5CC6CCC(C5)N6)nc(OCC56CCCN5CC(F)C6)nc4c3F)c12"
measured_metric = "viability, T/C"
measured = "25.7%"

[[record]]
molecule = "CCC(CC)c1cc(NC2CCC(N)C2)n2nccc2n1 (stereo not given) + C=CC(=O)N1CCN(c2nc(OCC3CCCN3C)nc3c(F)c(-c4nc(N)cc(C)c4C(F)(F)F)c(Cl)cc23)C(C)C1"
measured_metric = "viability, T/C"
measured = "19.3%"

[[record]]
molecule = "Cc1nc(N2CCC3(CC2)COC(C)C3N)c(CO)nc1Sc1ccnc(N)c1Cl (stereo not given) + C=CC(=O)N1CCN(c2nc(OCC3CCCN3C)nc3c(F)c(-c4nc(N)cc(C)c4C(F)(F)F)c(Cl)cc23)C(C)C1"
measured_metric = "viability, T/C"
measured = "15.9%"

[[record]]
molecule = "CC(Nc1ccc2c(c1)OCCn1cc(N3C(=O)OCC3C(F)F)nc1-2)C(N)=O (stereo not given) + C#Cc1c(F)ccc2cc(O)cc(-c3ncc4c(N5CC6CCC(C5)N6)nc(OCC56CCCN5CC(F)C6)nc4c3F)c12"
measured_metric = "viability, T/C"
measured = "50.6%"

